# credit: patent US20260028335A1

Let's look at some molecules and their measured IC50.
biological target: human GPR17 short isoform (Homo sapiens); assay: GPR17 cAMP assay (hGPR17 cAMP, antagonist mode, TR-FRET); details: CHO-K1 cells stably expressing human GPR17 short isoform; EC80 of agonist MDL29,951; forskolin 15 μM; IBMX 0.5 mM
Reply with the number and its unit after it.

Some solved entries appear below for comparison.
{"smiles.repr": "CCCc1onc(NS(=O)(=O)c2c[nH]c3cc(Cl)ccc23)c1C", "IC50": "815 nM"}
{"smiles.repr": "O=S(=O)(Nc1nsc(C2CC2)c1Cl)c1c[nH]c2nc(Br)ccc12", "IC50": "103 nM"}

Then this molecule:
So what IC50 did `Cc1onc(NS(=O)(=O)c2c[nH]c3cc(Cl)ccc23)c1C` get with human GPR17 short isoform (Homo sapiens)?
550 nM

----------
biological target: human GPR17 short isoform (Homo sapiens, UniProt Q13304); assay: GPR17 cAMP assay (hGPR17 cAMP, antagonist mode, TR-FRET); details: CHO-K1 cells stably expressing human GPR17 short isoform; EC80 of agonist MDL29,951; forskolin 15 μM; IBMX 0.5 mM
Sequence (Q13304 29-367): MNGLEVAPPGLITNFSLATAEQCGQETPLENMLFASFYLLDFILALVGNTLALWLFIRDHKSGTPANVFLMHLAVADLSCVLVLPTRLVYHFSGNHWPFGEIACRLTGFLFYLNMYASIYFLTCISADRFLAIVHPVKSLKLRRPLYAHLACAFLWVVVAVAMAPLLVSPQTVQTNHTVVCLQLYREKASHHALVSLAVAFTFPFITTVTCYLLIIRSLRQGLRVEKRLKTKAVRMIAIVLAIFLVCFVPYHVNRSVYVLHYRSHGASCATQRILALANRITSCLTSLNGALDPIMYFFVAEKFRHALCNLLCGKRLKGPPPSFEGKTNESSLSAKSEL
pIC50: −log10 of the molar value.
Label rule, in plain words: pIC50 of 7 and up is Satisfied, under 7 is Not satisfied.

{"smiles.repr": "CCc1onc(NS(=O)(=O)c2c[nH]c3cc(Cl)ccc23)c1C", "category.label": "Not satisfied"}
{"smiles.repr": "CCOc1snc(NS(=O)(=O)c2c[nH]c3cc(Cl)ccc23)c1Cl", "category.label": "Satisfied"}
{"smiles.repr": "CCc1c(NS(=O)(=O)c2c[nH]c3cc(Cl)ccc23)nsc1C", "category.label": "Not satisfied"}
{"smiles.repr": "Cc1onc(NS(=O)(=O)c2c[nH]c3cc(Cl)ccc23)c1Cl", "category.label": "Not satisfied"}

Could you verify whether the entry `O=S(=O)(Nc1nsc(C2CC2)c1Cl)c1c[nH]c2cc(Cl)ccc12` shows pIC50 of no less than 7?
Satisfied

----------
molecular target: human GPR17 short isoform (Homo sapiens, UniProt Q13304); assay: GPR17 cAMP assay (hGPR17 cAMP, antagonist mode, TR-FRET); conditions: CHO-K1 cells stably expressing human GPR17 short isoform; EC80 of agonist MDL29,951; forskolin 15 μM; IBMX 0.5 mM
Let's look at some compounds and their measured pIC50.
# log scale: pIC50 equals minus log10 of the concentration in mol/L

Some solved entries appear below for comparison.
{"smiles.repr": "CCCc1snc(NS(=O)(=O)c2c[nH]c3cc(Cl)ccc23)c1OC", "pIC50": 7.11}
{"smiles.repr": "CCc1snc(NS(=O)(=O)c2c[nH]c3cc(Cl)ccc23)c1Cl", "pIC50": 6.98}

Then this compound:
Please give the measured pIC50 for this compound: `Cc1snc(NS(=O)(=O)c2c[nH]c3cc(Cl)ccc23)c1C#N`
6.30

----------
molecular target: human GPR17 short isoform (Homo sapiens, UniProt Q13304); assay: GPR17 cAMP assay (hGPR17 cAMP, antagonist mode, TR-FRET); conditions: CHO-K1 cells stably expressing human GPR17 short isoform; EC80 of agonist MDL29,951; forskolin 15 μM; IBMX 0.5 mM
Let's look at some compounds and their measured IC50.
Reply numerically in µM, unit not repeated.

Some solved entries appear below for comparison.
{"smiles.repr": "N#CCCc1snc(NS(=O)(=O)c2c[nH]c3cc(Cl)ccc23)c1Cl", "experimental.endpoint": "IC50", "units": "µM", "value.observed": 0.074}
{"smiles.repr": "Cc1snc(NS(=O)(=O)c2c[nH]c3cc(Cl)ccc23)c1Cl", "experimental.endpoint": "IC50", "units": "µM", "value.observed": 0.106}

Please give the measured IC50 for this compound: `COc1snc(NS(=O)(=O)c2c[nH]c3cc(Cl)ccc23)c1Cl`
0.113

Please give the measured IC50 for this compound: `O=S(=O)(Nc1nsc(C2CC2)c1Cl)c1c[nH]c2nc(Cl)ccc12`
0.131
